- Tested on: TA102
- assay.procedure: Ames test, strain TA102
- Type: cell-based
- assay.context: 50 μg/dish
# Lookup of reported TA102 −S9 keyed by entry

Consider the reported TA102 −S9 for these compounds:
compound	target.or.system	TA102 −S9
O=c1c2cc(F)ccc2[se]n1-c1ccccn1 [IMM-127]	TA102	195.33 ± 35.22
C/C(=N\O)c1ccc(-n2[se]c3ccccc3c2=O)cc1 [IMM-065]	TA102	217.33 ± 15.43
O=c1c2cc(F)ccc2[se]n1-c1cccnc1 [IMM-128]	TA102	210.00 ± 31.54
O=c1c2cc(Cl)ccc2[se]n1-c1ccccn1 [IMM-004]	TA102	52.67 ± 6.59

Shifting focus to the compound that follows.
Inquiry: Which TA102 −S9 reading was recorded for the compound O=c1c2ccc(Cl)cc2[se]n1-c1ccncc1 [IMM-313] ?
Reply text: 0
